System: SF-539 CNS
ASSAY OVERVIEW: NCI-60 one-dose screen, 48 h (100 = growth as untreated, 0 = no growth, -100 = all killed)
STUDY CONDITIONS: 10 µM unless noted
The panel holds about 83,000 compounds, 20% with a hit somewhere; the sample as a whole holds those more often.
Classes based on growth: low value: < 60%; medium value: ≥ 60% and < 90%; high value: ≥ 90%

Examples with answers:
CN(C)c1ccc(N=C2C=CC(=O)C=C2)cc1    medium value
COc1cc(-c2cc(-c3nc4ccc(F)cc4[nH]3)[nH]n2)cc(OC)c1OC    low value

Textbook exercise: identify the category of the molecule given here, Cn1c2c(Cl)c(Cl)ccc2c2c(C#N)c[nH]c(=O)c21 , according to its measured value.
medium value

Textbook exercise: identify the category of the molecule given here, NC1=C(C/C(N)=N\O)C(c2ccccc2Cl)c2c(ccc3ccccc23)O1 (stereo not drawn) , according to its measured value.
medium value

Textbook exercise: identify the category of the molecule given here, Cn1cc(-c2csc(-c3cn(CCNC(=O)OC(C)(C)C)c4ccccc34)n2)c2cccnc21 , according to its measured value.
high value

Textbook exercise: identify the category of the molecule given here, COC1=C(Br)C(=O)C(OC)=C(Br)C1=O , according to its measured value.
high value

Textbook exercise: identify the category of the molecule given here, CN(C)CCCCC(C(=O)CBr)(c1ccccc1)c1ccccc1 , according to its measured value.
low value

Textbook exercise: identify the category of the molecule given here, COc1ccc2nc(-c3c(-c4ccccc4)nc4ncccn34)[nH]c2c1 , according to its measured value.
high value

====

Test system: NCI-H522 lung
ASSAY OVERVIEW: NCI-60 one-dose screen, 48 h (100 = growth as untreated, 0 = no growth, -100 = all killed)
STUDY CONDITIONS: 10 µM unless noted
This is part of a sample that, as a whole, favours compounds with a hit. Of some 83,000 tested, about 20% had one in any assay.
# note: boundary value 80% maps to false (0); growth below it maps to true (1)

CC(C)=CCC[C@](C)(O)[C@H]1CC[C@]2(C)[C@@H]1CC[C@@H]1[C@@]3(C)C/C(=C/c4ccc(Br)cc4)C(=O)C(C)(C)[C@@H]3CC[C@]12C    false (0)
CCOc1ccc(NC(=O)c2ccccc2-c2ccccc2C(=O)O)cc1    false (0)
Cn1cc(-c2nc(-c3c[nH]c4ncccc34)cs2)c2cc(Cl)ccc21    true (1)
CC(=O)c1c(C)[nH]c(-c2nc3ccc(N4CCN(C)CC4)cc3[nH]2)c1-c1ccc(N(C)C)cc1    true (1)
COc1ccc(-c2c(-c3nc4ccc(N5CCOCC5)cc4[nH]3)[nH]c(C)c2C(C)=O)cc1    true (1)
C/C(=N\Nc1ccc2ccccc2n1)c1ccccn1    true (1)
O=C1/C(=C\c2ccco2)SC(=S)N1CCc1ccc(O)cc1    true (1)
COc1cc(-c2cc(-c3nc4cc(Cl)c(Cl)cc4[nH]3)[nH]n2)cc(OC)c1OC    true (1)

growth strictly < 80% for this molecule? O=C1NC(=Nc2ccc(S(=O)(=O)Nc3nccs3)cc2)S/C1=C\c1coc2ccccc2c1=O
false (0)

growth strictly < 80% for this molecule? COc1ccc2nc(-c3c(-c4ccccc4)nc4ncccn34)[nH]c2c1
false (0)

growth strictly < 80% for this molecule? Cn1cc(-c2csc(-c3cn(C(=O)OC(C)(C)C)c4ccccc34)n2)c2cccnc21
true (1)

====

growth for assorted compounds
Test system: SR leukemia
ASSAY OVERVIEW: NCI-60 one-dose screen, 48 h (100 = growth as untreated, 0 = no growth, -100 = all killed)
STUDY CONDITIONS: 10 µM unless noted
This is part of a sample that, as a whole, favours compounds with a hit. Of some 83,000 tested, about 20% had one in any assay.
Give your result in % as a bare value.

Short answer please: growth, SR leukemia, entry O=C(NO)c1ccc(Cn2c(=O)n(CCc3ccc(O)cc3)c(=O)c3ccccc32)cc1
16.5

Short answer please: growth, SR leukemia, entry CC(C)=CCC[C@](C)(O)[C@H]1CC[C@]2(C)[C@@H]1CC[C@@H]1[C@@]3(C)C/C(=C/c4ccc(Br)cc4)C(=O)C(C)(C)[C@@H]3CC[C@]12C
80.7

Short answer please: growth, SR leukemia, entry CCCCC[C@H]1C/C=C2/C(=O)C(Cl)=C[C@@H]2C/C=C\CCCC(=O)O1
2.6

====

Tested on: HCT-15 colon
ASSAY OVERVIEW: NCI-60 one-dose screen, 48 h (100 = growth as untreated, 0 = no growth, -100 = all killed)
STUDY CONDITIONS: 10 µM unless noted
Compounds without any hit were thinned out: in the full panel of roughly 83,000, 20% have a hit.
growth for assorted compounds
Give your result in % as a bare value.

COc1cc(-c2cc(-c3nc4ccc(F)cc4[nH]3)[nH]n2)cc(OC)c1OC    24.1
O=C(NC1=CC(=O)c2ccccc2C1=O)c1ccccc1    29.1

// below: growth requested for another compound
Short answer please: growth, HCT-15 colon, entry O=C1c2cc3c(cc2-c2c1c1ccc(Cl)cc1c(=O)n2C[C@H](O)[C@@H](O)[C@H](O)CO)OCO3
0.364

====

Tested on: NCI-H522 lung
ASSAY OVERVIEW: NCI-60 one-dose screen, 48 h
STUDY CONDITIONS: 10 µM unless noted
About 83,000 compounds went through this panel and 20% of them were active in at least one assay; those are over-represented in the sample as a whole. Active and inactive are the calls of the source. The calls were made as follows: active = growth percent below 10; inactive = the rest.
Hello, when you answer, please use one of the following outcomes: active, inactive

Examples with answers:
NCCNc1nc(-c2ccccc2)nc2nc(-c3ccccc3)oc12    inactive
O=Cc1nc2ccccc2[nH]1    inactive
CC(C)(C)n1cc(-c2ccnc(NCCCNS(=O)(=O)c3ccc(Cl)cc3)c2)c(-c2cccc(F)c2)n1    inactive
CC(Cc1ccco1)C(=O)NC(N)=O (stereo not drawn)    inactive

Which outcome was entered for the compound Nc1c(Cl)cc(N=Nc2ccccc2)cc1Cl in this test?
inactive

Which outcome was entered for the compound COC(=O)[C@]12CC[C@@H](C(=O)/C=C/c3cccnc3)[C@@H]1[C@H]1CC[C@@H]3[C@@]4(C)C/C(=C/c5cccnc5)C(=O)C(C)(C)[C@@H]4CC[C@@]3(C)[C@]1(C)CC2 in this test?
active

Which outcome was entered for the compound CN(CSc1ccc(Cl)cc1)c1ccc(CSc2ccc(Cl)cc2)cc1 in this test?
inactive

Which outcome was entered for the compound CC(=O)N1N=C(c2ccc(C)cc2)CC1c1ccc(Oc2ccc(Br)cc2)cc1 (stereo not drawn) in this test?
inactive

====

System: SNB-19 CNS
ASSAY OVERVIEW: NCI-60 one-dose screen, 48 h (100 = growth as untreated, 0 = no growth, -100 = all killed)
STUDY CONDITIONS: 10 µM unless noted
Compounds without any hit were thinned out: in the full panel of roughly 83,000, 20% have a hit.
READOUT KIND: growth (%)
Give your result in % as a bare value.

Take a look at these entries with their results.
COc1cc(/C=N/Nc2ncnc3c2c(C)nn3-c2ccc(F)cc2)ccc1O    93.3
CCOC(=O)C1OC1(c1ccccc1)c1ccccc1 (centres undefined)    107
O=C1c2cccc3cccc(c23)C(=O)N1CC#Cc1ccc2c3c(cccc13)C(=O)N(CCO)C2=O    96.3

// below: growth requested for another compound
Dear colleague, I am looking for the recorded growth of the following compound: COc1ccccc1-n1cnc(N)c1C(=O)c1cc(OC)c(OC)c(OC)c1
55.1

====

System: SK-MEL-5 melanoma
ASSAY OVERVIEW: NCI-60 one-dose screen, 48 h (100 = growth as untreated, 0 = no growth, -100 = all killed)
STUDY CONDITIONS: 10 µM unless noted
About 83,000 compounds went through this panel and 20% of them were active in at least one assay; those are over-represented in the sample as a whole.
growth for assorted molecules
Give your result in % as a bare value.

Take a look at these entries with their results.
Cn1cc(-c2nc(-c3c[nH]c4ncccc34)cs2)c2cc(Br)ccc21    91.8
COc1cc2nc(Cl)nc(Nc3cccc(C(=O)/C=C/c4ccc(Cl)cc4)c3)c2cc1OC    83.9
COc1ccc2[nH]c(-c3ccc(Cl)cc3)cc(=O)c2c1    95.6
NC(N)=N/N=C/c1ccc(-c2ccc(-c3ccc(Cl)cn3)s2)cc1    91.6
Nc1ccc(Cl)cn1    103

Dear colleague, I am looking for the recorded growth of the following molecule: CN(CSc1ccc(Cl)cc1)c1ccc(CSc2ccc(Cl)cc2)cc1
70.9

====

System: T-47D breast
ASSAY OVERVIEW: NCI-60 one-dose screen, 48 h (100 = growth as untreated, 0 = no growth, -100 = all killed)
STUDY CONDITIONS: 10 µM unless noted
About 83,000 compounds went through this panel and 20% of them were active in at least one assay; those are over-represented in the sample as a whole.
READOUT KIND: growth (%)
Give your result in % as a bare value.

CCNCCCn1c2c(c3ccc([N+](=O)[O-])cc3c1=O)C(=O)c1cc(OC)cnc1-2    -12.9
CC1(C)CC[C@]2(CO)CC[C@]3(C)C(=CC[C@@H]4[C@@]5(C)CC[C@H](NCO)C(C)(C)[C@@H]5CC[C@]43C)[C@@H]2C1    4.47
COc1cc(-c2cc(-c3nc4ccc(F)cc4[nH]3)[nH]n2)cc(OC)c1OC    -21.3
CCN1CCN(C(=O)[C@@]2(C)CC[C@]3(C)CC[C@]4(C)C(=CC(=O)[C@@H]5[C@@]6(C)CC[C@H](OCCC#N)C(C)(C)[C@@H]6CC[C@]54C)[C@@H]3C2)CC1    66
COc1cc(-c2cc(-c3nc4ccccc4[nH]3)[nH]n2)cc(OC)c1OC    6.65
COC(=O)[C@]12CC[C@@H](C(=O)/C=C/c3cccnc3)[C@@H]1[C@H]1CC[C@@H]3[C@@]4(C)C/C(=C/c5cccnc5)C(=O)C(C)(C)[C@@H]4CC[C@@]3(C)[C@]1(C)CC2    -43.6

Dear colleague, I am looking for the recorded growth of the following compound: Cc1ccc(Nc2c(C(N)=O)cnc3ccc(S(=O)(=O)Nc4cc(C)on4)cc23)cc1
92.7

Dear colleague, I am looking for the recorded growth of the following compound: CC1(C)C(=O)/C(=C\c2ccco2)C[C@]2(C)[C@H]3CC[C@@H]4[C@@H](C(=O)/C=C/c5ccco5)CC[C@@]4(C)[C@]3(C)CC[C@@H]12
35

Dear colleague, I am looking for the recorded growth of the following compound: COC(=O)[C@]12CC[C@@H](C)[C@H](C)[C@@H]1C1=CC[C@@H]3[C@@]4(C)C[C@@H](OC(C)=O)[C@H](O)[C@@](C)(CO)[C@@H]4[C@H](O)C[C@@]3(C)[C@]1(C)CC2
-66.9

Dear colleague, I am looking for the recorded growth of the following compound: Cc1ccc(Sc2sc(-c3ccccc3)nc2[P+](c2ccccc2)(c2ccccc2)c2ccccc2)cc1
-9.83

Dear colleague, I am looking for the recorded growth of the following compound: Nc1nc2c(c(=O)[nH]1)C(c1ccc3c(c1)OCO3)C=C(C(=O)O)N2 (configuration not stated)
106

Dear colleague, I am looking for the recorded growth of the following compound: Cc1ccncc1C(=O)O
107

Dear colleague, I am looking for the recorded growth of the following compound: CCCCn1c(-c2ccc(O)cc2)cn2c3c(=O)[nH]c(=O)n(C)c3nc12
64.6

Dear colleague, I am looking for the recorded growth of the following compound: COC(=O)[C@]12CC[C@@H](C)[C@H](C)[C@@H]1C1=CC[C@@H]3[C@@]4(C)CC(=O)[C@H](OC(=O)c5ccco5)[C@@]5(C)COC(=C45)C[C@@]3(C)[C@]1(C)CC2
1.72
